B1: ZNF649 (parent)
chain: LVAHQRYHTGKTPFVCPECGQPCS

# Variants of: B1
# protocol-details: protein stability index of a GFP-peptide fusion (GPS, HEK-293T) (PSI 1-6); higher = more stable;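 also: lentivirally expressed fusions sorted by FACS into six bins by GFP to DsRed ratio, PSI derived from sequencing read proportions per bin multiplied by bin number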
# measurement-conditions: c terminus: a fixed tail appended
Use 3 as the dividing line for protein stability index, with the line itself on the Criterion met side and lower values as Criterion not met.

[[record]]
mutant_id = "E18K"
assigned_class = "Criterion not met"

[[record]]
mutant_id = "V15N"
assigned_class = "Criterion met"

[[record]]
mutant_id = "A3L"
assigned_class = "Criterion not met"

[[record]]
mutant_id = "P13S"
assigned_class = "Criterion met"

[[record]]
mutant_id = "P22R"
assigned_class = "Criterion met"

[[record]]
mutant_id = "H8R"
assigned_class = "Criterion not met"

[[record]]
mutant_id = "R6Y"
assigned_class = "Criterion met"

[[record]]
mutant_id = "V15H"
assigned_class = "Criterion not met"


With those in mind, consider the next variant.
Task: Given "P13I" , state whether its protein stability index is at least 3.
Output: Criterion not met
